The reported numbers originate from paper PMC6792352.

system: GH3-TRE-Luc cell line; conditions: read-out: AC50 (uM) modified / 1000; Tox21_110001=Tox21_302917; viability, 1 nM T3 present, 24 h
test-readout: CC50 (µM)
Answer with a number only, understood to be in µM.

Query: Request: CC50, test system GH3-TRE-Luc cell line, entry CCCCC/C=C\C/C=C\CCCCCCCC(=O)OC [Methyl linoleate]
Reply: 74

###

tested on: GH3-TRE-Luc cell line; details: read-out: AC50 (uM) modified / 1000; Tox21_110001=Tox21_303596; viability, 1 nM T3 present, 24 h
test-readout: CC50

Query: Entry O=C1c2ccccc2C(=O)N1SC1CCCCC1 [N-(Cyclohexylthio)phthalimide] : reported CC50 = ?
Reply: 23.2 µM

###

assay: in vitro; details: rat, gh3-tre-luc cells, AC50 (uM) modified / 1000, Tox21_110001=Tox21_111833; viability, 1 nM T3 present, 24 h
test-readout: CC50 at 24 h

Query: State the recorded CC50 at 24 h for this entry: c1csc(C2(N3CCCCC3)CCCCC2)c1
Reply: > 50 µM

###

assay: in vitro; conditions: rat, gh3-tre-luc cells, AC50 (uM) modified / 1000
test-readout: CC50 at 24 h (µM)
Supply the numeric figure in µM, leaving out any unit text.

Query: Given C[C@@H]1O[C@@H](OC[C@H]2O[C@@H](Oc3c(-c4ccc(O)c(O)c4)oc4cc(O)cc(O)c4c3=O)[C@H](O)[C@@H](O)[C@@H]2O)[C@H](O)[C@H](O)[C@H]1O , state its recorded CC50 at 24 h.
Reply: 57.3

Query: Form field: reported CC50 at 24 h of CC[n+]1c(-c2ccccc2)c2cc(N)ccc2c2ccc(N)cc21 [Ethidium bromide]
Reply: 47.9

Query: Which value of CC50 at 24 h has been reported for Cc1cc(C2CCCCC2)n(O)c(=O)c1 in the records?
Reply: 1.9

###

experiment: in vitro; settings: rat, gh3-tre-luc cells, AC50 (uM) modified / 1000
Counter-ions that a name gives are not always drawn.
test-readout: CC50 at 24 h

// known answers, use as guide
Cc1cc(Cl)c(C)cc1Cl : > 90 µM
O=C(c1ccc(F)cc1)C1CCN(CCn2c(=S)[nH]c3ccccc3c2=O)CC1 [Altanserin hydrochloride] : > 50 µM

Query: Which CC50 at 24 h reading was recorded for the molecule CC(C)C(OC(=O)c1ccccc1)C(C)(C)COC(=O)c1ccccc1 (stereo not drawn) ?
Reply: 76 µM

Query: State the recorded CC50 at 24 h for this entry: CN1C(=S)CN=C(c2ccccc2)c2cc(Cl)ccc21
Reply: > 50 µM

Query: Reported CC50 at 24 h, molecule Cn1cc([S+](C)[O-])c(=O)c2ccc(F)cc21 (stereo not drawn) : ____
Reply: > 50 µM

Query: Given C=C(C)C(=O)OCCOP(=O)(O)OCCOC(=O)C(=C)C , state its recorded CC50 at 24 h.
Reply: > 90 µM

Query: Any idea what CC50 at 24 h was measured for COc1cc2ncnc(Nc3ccc(F)c(Cl)c3)c2cc1OCCCN1CCOCC1 ?
Reply: 8.92 µM

Query: Quick check: CC50 at 24 h of CN/C(=N/CCSCc1nc[nH]c1C)NC#N ?
Reply: > 90 µM

Query: // query CC50 at 24 h value for entry CC(C)(O/N=C(\C(=O)N[C@@H]1C(=O)N2C(C(=O)[O-])=C(C[n+]3ccccc3)CS[C@H]12)c1csc(N)n1)C(=O)O [Ceftazidime pentahydrate]
Reply: > 20 µM

###

assay: in vitro; details: rat, gh3-tre-luc cells, AC50 (uM) modified / 1000, Tox21_110001=Tox21_200152; viability, 1 nM T3 present, 24 h
test-readout: CC50 at 24 h

Query: Reported CC50 at 24 h for CCOC(=O)CBr [Ethyl bromoacetate] : what is it?
Reply: > 90 µM

###

assay: in vitro; details: rat, gh3-tre-luc cells, AC50 (uM) modified / 1000, Tox21_110001=Tox21_201451; viability, 1 nM T3 present, 24 h
test-readout: CC50 at 24 h

Query: May I ask what CC50 at 24 h has been recorded for CNC(=O)N(C)c1nnc(C(C)(C)C)s1 ?
Reply: > 90 µM

###

assay: in vitro; settings: rat, gh3-tre-luc cells, AC50 (uM) modified / 1000, Tox21_110001=Tox21_112669; viability, 1 nM T3 present, 24 h
test-readout: CC50 at 24 h (µM)
The reply should be a number in µM, with the unit left off.

Query: For CC(C)CCC(=O)O[C@H]1CC[C@H]2[C@@H]3CCC4=CC(=O)CC[C@]4(C)[C@H]3CC[C@]12C [Testosterone isocaproate] , what is its reported CC50 at 24 h?
Reply: 35.3

###

test: in vitro; details: rat, gh3-tre-luc cells, AC50 (uM) modified / 1000, Tox21_110001=Tox21_201304; viability, 1 nM T3 present, 24 h
test-readout: CC50 at 24 h

Query: Need CC50 at 24 h of CCCCCCCCCCCC#N [Dodecanenitrile] , thanks.
Reply: > 90 µM

###

assay: in vitro; details: rat, gh3-tre-luc cells, AC50 (uM) modified / 1000, Tox21_110001=Tox21_112671; viability, 1 nM T3 present, 24 h
test-readout: CC50 at 24 h

Query: Dear colleague, I am looking for the recorded CC50 at 24 h of the following compound: C[C@]12CC[C@H](O)C[C@H]1CC[C@@H]1[C@@H]2CC[C@]2(C)[C@@H](c3ccc(=O)oc3)C[C@H]3O[C@]132
Reply: > 50 µM

###

test: in vitro; details: rat, gh3-tre-luc cells, AC50 (uM) modified / 1000, Tox21_110001=Tox21_201798; viability, 1 nM T3 present, 24 h
test-readout: CC50 at 24 h (µM)
Give a bare numeral; the unit µM is implied.

Query: Endpoint output: CC50 at 24 h of O=P(OCC(Br)CBr)(OCC(Br)CBr)OCC(Br)CBr (stereo not shown) [Tris(2,3-dibromopropyl) phosphate] . Value?
Reply: 30.4

###

experiment: in vitro; conditions: rat, gh3-tre-luc cells, AC50 (uM) modified / 1000, Tox21_110001=Tox21_112825; viability, 1 nM T3 present, 24 h
Where a name gives a salt, the structure may show the parent alone.
test-readout: CC50 at 24 h

Query: Which CC50 at 24 h reading was recorded for the compound CCOC(=O)C1(c2ccccc2)CCN(CCC(C#N)(c2ccccc2)c2ccccc2)CC1 [Diphenoxylate hydrochloride] ?
Reply: 19.7 µM

###

experiment: in vitro; conditions: rat, gh3-tre-luc cells, AC50 (uM) modified / 1000, Tox21_110001=Tox21_301581; viability, 1 nM T3 present, 24 h
test-readout: CC50 at 24 h (µM)
Just the number in µM, nothing appended.

Query: Given the compound O=S1OC[C@@H]2[C@H](CO1)[C@]1(Cl)C(Cl)=C(Cl)[C@@]2(Cl)C1(Cl)Cl (stereo partly shown) [Endosulfan I] , what is its reported CC50 at 24 h?
Reply: 69.4

###

tested on: GH3-TRE-Luc cell line; conditions: read-out: AC50 (uM) modified / 1000; Tox21_110001=Tox21_110319; viability, 1 nM T3 present, 24 h
test-readout: CC50 (µM)
I only need the number, in µM, no unit after it.

Query: Would you mind telling me what CC50 value was observed for C#C[C@]1(O)CC[C@H]2[C@@H]3CCC4=CCCC[C@@H]4[C@H]3CC[C@@]21C ?
Reply: 17.1

###

assay: in vitro; conditions: rat, gh3-tre-luc cells, AC50 (uM) modified / 1000, Tox21_110001=Tox21_110991; viability, 1 nM T3 present, 24 h
test-readout: CC50 at 24 h

Query: Can you share its CC50 at 24 h? I mean this compound: CCC1(c2ccccc2)C(=O)N(COC)C(=O)N(COC)C1=O [Eterobarb]
Reply: > 50 µM

###

assay: in vitro; conditions: rat, gh3-tre-luc cells, AC50 (uM) modified / 1000, Tox21_110001=Tox21_202415; viability, 1 nM T3 present, 24 h
test-readout: CC50 at 24 h

Query: Endpoint output: CC50 at 24 h of Oc1ccccc1-c1ccccc1 [2-Phenylphenol] . Value?
Reply: > 90 µM

###

test system: GH3-TRE-Luc cell line; conditions: read-out: AC50 (uM) modified / 1000; Tox21_110001=Tox21_110162; viability, 1 nM T3 present, 24 h
test-readout: CC50 (µM)
Answer in µM, number only, no unit symbol.

Query: Observed CC50 on GH3-TRE-Luc cell line for O=C(CCCN1CCC(O)(c2ccc(Cl)cc2)CC1)c1ccc(F)cc1 [Haloperidol] , please.
Reply: 20.6
